# targetOrTestSystem: human IL-1β (human, UniProt P01584 117-269)
# testMethodNotes: cell-based or functional assay
quantityName: IL-1β IC50 (nM)
Reply numerically in nM, unit not repeated.

Known results for binders:
binder="ABT2-108-620x/ABT1-122 huIgG1/K wt (bispecific antibody, V domains shown) VH: EVQLLESGGGLVQPGGSLRLSCAASGFTFAEESWMWVRQAPGKGLEWVSRIGQDGKNTYYREDVKGRFTISRDNSKNTLYLQMNSLRAEDTAVYYCAKYTGRIMGHHLFDYWGQGTLVTVSS VL: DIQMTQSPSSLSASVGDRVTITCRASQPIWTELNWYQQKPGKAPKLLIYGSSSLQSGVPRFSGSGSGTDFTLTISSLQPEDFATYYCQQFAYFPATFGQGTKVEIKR" quantityname="IL-1β IC50" testresult=0.05
binder="ABT2-65-166/ABT1-95-184 hu IgG1mut 234, 235/K (bispecific antibody, V domains shown) VH: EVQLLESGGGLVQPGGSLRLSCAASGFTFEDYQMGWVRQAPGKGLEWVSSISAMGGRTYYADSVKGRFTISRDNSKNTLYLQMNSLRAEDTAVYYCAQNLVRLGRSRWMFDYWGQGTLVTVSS VL: DIQMTQSPSSLSASVGDRVTITCRASRTPVRNLRWYQQKPGKAPKLLIYSRSYLEPGVPSRFSGSGSGTDFTLTISSLQPEDFATYHCLQGYRWPPTFGQGTKVEIKR" quantityname="IL-1β IC50" testresult=0.15

query: Record request: IL-1β IC50 value, item ABT2-108/ABT1-122-554 hu IgG1/K wt (bispecific antibody, V domains shown) VH: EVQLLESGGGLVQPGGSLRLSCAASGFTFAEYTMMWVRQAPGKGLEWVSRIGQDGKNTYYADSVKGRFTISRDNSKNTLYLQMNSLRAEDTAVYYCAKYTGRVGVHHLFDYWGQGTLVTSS VL: DIQMTQSPSSLSASVGDRVTITCRASQPIWTELNWYQQKPGKAPKLLIYGSSSLQSGVPSRFSGSGSGTDFTLTISSLQPEDFATYYCQQFAYFPATFGQETKVEIKR
result: 9
